- Test system: RAW 264.7 macrophages
- test method notes: Endocytosis inhibition study of HEP-AuNP uptake (ICP-MS)
- Format: cell-based, murine
- details: inhibitor screen; 1 h pre-incubation, nanoparticles 1.5 hours
- Method: Panel (A) is a schematic representation of the uptake pathway study: (i) non-specific endocytosis inhibition to determine whether nanoparticle cellular uptake is energy-dependent. […] Panels (B) to (D) are ICP-MS quantification of the nanoparticle cellular uptake in RAW 264.7 macrophages at 4° C.—Panel (B), in the presence of ATPase inhibitor sodium azide—Panel (C), or chemical endocytosis inhibitors of caveolae-mediated endocytosis, clathrin-mediated endocytosis, and micropinocytosis—Panel (D). […]
test readout: nanoparticle cellular uptake inhibition efficiencies

| compound | measurement |
| --- | --- |
| CN(C)CCCN1c2ccccc2CCc2ccccc21 | ~8% |
| CCN(CC)CCCC(C)Nc1ccnc2cc(Cl)ccc12 (stereo not shown) | ~12% |
| C=C1[C@@H](C)[C@H]2[C@H](Cc3ccccc3)NC(=O)[C@]23[C@H](OC(C)=O)/C=C/[C@@](C)(O)C(=O)[C@@H](C)C/C=C/[C@H]3[C@@H]1O | ~24% |
